The following compounds are listed with their measured log10 intrinsic clearance, rat liver microsomes values.
On a log10 scale: recorded intrinsic clearance, rat liver microsomes, unit mL/min/kg.

In the examples that follow, each entry is paired with its recorded log10 intrinsic clearance, rat liver microsomes.
>  <Compound>
Cc1ncn(Cc2noc(-c3ccccc3O)n2)c1C

>  <Measured Result>
2.68

$$$$
>  <Compound>
Cc1ccc(C)c(OCCC(=O)N2CCC(n3c(=O)[nH]c4ccccc43)CC2)c1

>  <Measured Result>
3.81

$$$$
>  <Compound>
CN(Cc1nc2c(s1)CCCC2)c1cnccn1

>  <Measured Result>
3.11

$$$$
>  <Compound>
CCOC(C)C(=O)N1CCC(n2c(=O)[nH]c3ccccc32)CC1 (configuration not stated)

>  <Measured Result>
1.88

$$$$
>  <Compound>
Cc1nc2ncccn2c1C(=O)N(CC#Cc1ccccc1)C1CCCC1

>  <Measured Result>
3.67

$$$$
>  <Compound>
CCN(CC)Cc1cnc(NC(=O)c2ccccc2)s1

>  <Measured Result>
2.28

$$$$

Enquiry: Looking for the measured log10 intrinsic clearance, rat liver microsomes of Cc1nn(CCNS(=O)(=O)N2CCCCC2)c(C)c1C , can you help?
Return: 3.51

Enquiry: Same for CN(Cc1cccnc1)Cc1ccc(C#N)o1
Return: 1.84

Enquiry: Same for CCCc1cc(CNS(=O)(=O)c2cc(-c3cnc(C)o3)ccc2C)on1
Return: 3.40

Enquiry: Same for O=C([C@H]1CCCN(Cc2ccc(Cl)cc2)C1)N1CCc2ccccc2C1
Return: 3.58

Enquiry: Same for Cc1nn(-c2ccc(F)cc2)c2ncc(C(=O)Nc3nc(C4CC4)cs3)cc12
Return: 1.51
